Just for reference, paper PMC10397247 is where these values come from.

Target: T1, 4H855-bA
T1 chain: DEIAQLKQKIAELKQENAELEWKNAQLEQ
Assay: two-hybrid library CCNG1;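 note: natural log of median RNA to DNA barcode read ratio; higher means stronger binding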
MEASUREMENT_NAME: interaction score

[a] DEIAQLKQKIAELKQENAELEWKNAQLEQ [4H855-bA]
[b] DKIAQLKQKNAELKQEIAELEWEIAQLKQ [4H3010-bA]
[c] DEIAQLEQEIAELKQKNAELEWKIAQLKQ [4H118-bA]
[d] DEIAQLKQENAELEQKIAELKWENAQLEQ [4H683-bA]
Output the entries ranked by interaction score from maximum down to minimum. As an answer, provide the labels arranged in the order called for. c, d, a, b

[a] DKNAQLKQKNAELKQKIAELKWEIAQLEQ [4H4073-bA]
[b] DEIAQLEQKIAELKQENAELKWEIAQLKQ [4H346-bA]
[c] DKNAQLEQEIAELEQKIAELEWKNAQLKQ [4H3112-bA]
[d] DEIAQLEQEIAELKQKIAELKWKNAQLKQ [4H112-bA]
[e] DKIAQLKQEIAELKQKNAELEWEIAQLEQ [4H2673-bA]
Arrange these binders by their interaction score, starting with the largest number. Output spec: labels arranged per the requested ranking. c, d, b, e, a
(c: 1.01, d: 0.496, b: 0.0345, e: 0.000366, a: -1.17)

[P] DEIAQLEQKNAELKQEIAELKWEIAQLEQ [4H457-bA]
[Q] DENAQLEQENAELEQEIAELEWKIAQLKQ [4H1158-bA]
[R] DEIAQLKQEIAELEQKNAELKWKNAQLEQ [4H575-bA]
Output the entries ranked by interaction score from maximum down to minimum. Provide the labels, sequenced as the question asks. R, Q, P
(R: 1.12, Q: 0.0299, P: -1.04)

[a] DKNAQLKQKIAELKQENAELEWKIAQLKQ [4H3926-bA]
[b] DENAQLKQKIAELEQKIAELEWKNAQLEQ [4H1831-bA]
Just tell me: smaller interaction score value, a or b ? Pick one and reply with its label. a
(a: -1.23, b: 0.246)
